- assayedTarget: T1, MCM2 HBD (61–130)–H3.3–H4 complex ( | human, UniProt P49736 61-130; P84243 1-136; P62805 2-103)
- T1 construct: histone H3.3, human; histone H4, human; also called pre-assembled MCM2 HBD-H3.3-H4 complexes; MCM2 HBD–H3.3–H4 complex; source: purified as described previously (Huang et al., 2015); copies: + +
- protocolDescription: pull-down; GST-tagged protein (1.5 nmol) on Glutathione Sepharose 4B, 1.5 nmol histone complex added; 20 mM Tris pH 7.5, 500 mM NaCl, 4°C, 2 hours; washes with 0.5% Triton X-100; SDS-PAGE
- experimentalParameters: both partners purified
measuredProperty: binding result

Worked cases, binding result given:
GST-DNAJC9 HBD (histone binding domain, 171–249) (domain or fragment, PDB 7CJ0 holds the same limits with C243S; also called GST-tagged DNAJC9 HBD; DNAJC9 HBD WT; source: E. coli BL21 (DE3)-RIL, purified (Glutathione Sepharose 4B, Superdex 200)) EVPSYNAFVKESKQKMNARKRRAQEEAKEAEMSRKELGLDEGVDSLKAAIQSRQKDRQKEMDNFLAQMEAKYCKSSKGG; binds
GST-DNAJC9 HBD M238A Y242A (domain or fragment, source: E. coli BL21 (DE3)-RIL, purified (Glutathione Sepharose 4B, Superdex 200)) EVPSYNAFVKESKQKMNARKRRAQEEAKEAEMSRKELGLDEGVDSLKAAIQSRQKDRQKEMDNFLAQAEAKACKSSKGG; binds
GST-DNAJC9 HBD 4A1 (E195A E196A E199A A200E) (domain or fragment, source: E. coli BL21 (DE3)-RIL, purified (Glutathione Sepharose 4B, Superdex 200)) EVPSYNAFVKESKQKMNARKRRAQAAAKAEEMSRKELGLDEGVDSLKAAIQSRQKDRQKEMDNFLAQMEAKYCKSSKGG; binds
GST-DNAJC9 HBD F234A L235A (domain or fragment, source: E. coli BL21 (DE3)-RIL, purified (Glutathione Sepharose 4B, Superdex 200)) EVPSYNAFVKESKQKMNARKRRAQEEAKEAEMSRKELGLDEGVDSLKAAIQSRQKDRQKEMDNAAAQMEAKYCKSSKGG; binds

Could you now consider this next binder?
Q: Supply measured binding result of GST-DNAJC9 HBD Q224A R227A (domain or fragment, source: E. coli BL21 (DE3)-RIL, purified (Glutathione Sepharose 4B, Superdex 200)) EVPSYNAFVKESKQKMNARKRRAQEEAKEAEMSRKELGLDEGVDSLKAAIQSRAKDAQKEMDNFLAQMEAKYCKSSKGG in your reply.
Result: binds
